B1: tRNA (parent)
chain: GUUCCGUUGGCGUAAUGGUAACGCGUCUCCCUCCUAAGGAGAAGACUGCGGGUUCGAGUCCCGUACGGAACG

# Variants of: B1
# method description: yeast fitness, log relative to wild type (ln ratio); higher = fitter; tRNA-Arg(CCU), competitive growth, 37 C, 1 M NaCl
Assign classes using reported yeast fitness (ln) values and the ranges category 1 = under -0.3, category 2 = from -0.3 up to -0.2, category 3 = -0.2 and over, please.

Solved cases below.
>  <mutant code>
U2C G6A C27U C46U C66U A69G A70U

>  <qualitative label>
category 2

$$$$
>  <mutant code>
U2G C66U A70G

>  <qualitative label>
category 3

$$$$
>  <mutant code>
G1A C46U C66A C71U

>  <qualitative label>
category 2

$$$$
>  <mutant code>
G1A U2C C27U A43C C46U C66U A69G A70U

>  <qualitative label>
category 2

$$$$
>  <mutant code>
G1A C46U A70G

>  <qualitative label>
category 2

$$$$
>  <mutant code>
U2C C46U C66U A69G C71U

>  <qualitative label>
category 3

$$$$

Here's the next entry for you.
stdin: Hey, which category is G1A U2G C27U A43C C46U C66U in, do you know?
stdout: category 2
